Recorded values, source PubChem BioAssay (NCI).

system: MDA-MB-435; assay: NCI tumour cell line growth inhibition, 48 h
Test readout: TGI (µM)
Give just the numeric value; µM need not be written.

Lookup: Given the compound CSc1c(C#N)c(N)nc2c(N=Nc3ccc(Cl)cc3)c(N)nn12 , what is its reported TGI?
Found: 28.1

Lookup: Return reported TGI; argument: CN1c2ccccc2C(C)(C)C12C=Cc1cc(O)ccc1O2 (centres undefined)
Found: 4.49

* * *

tested on: 786-0 renal; experiment: NCI tumour cell line growth inhibition, 48 h
Assignment: determine reported TGI for the given compounds.

Lookup: Consider the compound shown here: CCC1CN2CCc3c([nH]c4ccccc34)C2C[C@@H]1CC(=O)N(C)C (some centres not stated) What is its recorded TGI?
Found: > 100 µM

Lookup: What value of TGI has been reported for the following compound? CN(C)c1nncc2[nH]cnc12
Found: > 100 µM

Lookup: Which TGI reading was recorded for the compound C=C1CC/C=C(\C)C(=O)C[C@@H]2[C@@H]1CC2(C)C ?
Found: 6.69 µM

Lookup: Would you mind telling me what TGI value was observed for NCCCNCCCCN(CCCN)/[N+]([O-])=N\O ?
Found: > 100 µM

Lookup: # lookup: TGI of CC(=O)N(O)[C@@H]1CC[C@H](n2cnc3c(N)ncnc32)C1
Found: > 100 µM

Lookup: Query: TGI; subject: C1=CC=C2NCCCNC3=CC=CC=CC3=NCCCN=C2C=C1
Found: > 100 µM

Lookup: What measured TGI goes with CCOC(=O)C1OC(C2(C)OC3(OC4(C=CC3O)OC(C(C)C(=O)C(C)C(O)C(C)CC(C)c3c(Cl)cc(C)c(O)c3C(=O)O)C(C)CC4C)C(C)C2OC)CC1O (configuration not stated) ?
Found: 4.47 µM
